This collection of values is drawn from PubChem BioAssay AID1919000.

What viability, T/C was measured for each of the following?
- System: 653999-131-R-J2-PDC complex spheroids, growth % test/control;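 also: spheroids exposed to agents for seven days; 100% = DMSO vehicle control viability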
- Method: Anticancer human tumor 653999-131-R-J2-PDC patient-derived lung adenocarcinoma cell line growth inhibition [AhR]
- Condition Summary: second compound 0.316 µM; first compound 0.949 µM; active compounds read low
Give bare numbers, in %.

{"columns": ["Compound", "viability, T/C / %"],
 "data": [
  ["CCN(c1cc(-c2ccc(CN3CCOCC3)cc2)cc(C(=O)NCc2c(C)cc(C)[nH]c2=O)c1C)C1CCOCC1 + Cc1cncc(-c2nc(NCCc3c[nH]c4ccccc34)c3ncn(C(C)C)c3n2)c1", 104],
  ["CCN(c1cc(-c2ccc(CN3CCOCC3)cc2)cc(C(=O)NCc2c(C)cc(C)[nH]c2=O)c1C)C1CCOCC1 + Cc1ccccc1N=Nc1ccc(NC(=O)c2ccnn2C)c(C)c1", 93.3]
]}

Could you now look at the following compound, please?
Please fill in: viability, T/C reported for O=C(C=Cn1cnc(-c2cc(C(F)(F)F)cc(C(F)(F)F)c2)n1)NNc1cnccn1 + Cc1ccccc1N=Nc1ccc(NC(=O)c2ccnn2C)c(C)c1 = 45.3
